# SUBJECT OF TEST: human TREX2 (residues M44-A279) (Homo sapiens)
# Construct: human TREX2 (residues M44-A279, expressed in E. coli); His-Tev (His tag with TEV site) (N)
# Sequence (Q9BQ50 whole entry, the tested form may be a part): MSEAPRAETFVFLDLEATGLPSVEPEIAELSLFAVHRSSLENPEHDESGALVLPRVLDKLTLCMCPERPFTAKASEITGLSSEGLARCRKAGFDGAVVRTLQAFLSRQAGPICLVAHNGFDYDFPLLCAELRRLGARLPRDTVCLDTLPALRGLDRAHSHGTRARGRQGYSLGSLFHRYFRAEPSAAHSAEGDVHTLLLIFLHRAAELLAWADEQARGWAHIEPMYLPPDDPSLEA
# TEST PROTOCOL: TREX2 Biochemical Assay (fluorescence assay, degradation of dsDNA substrate)
# MEASUREMENT CONDITIONS: 2.5 nM TREX2, 60 nM dsDNA substrate, 25 minutes at room temperature
# Description: Degradation of the dsDNA liberates free fluorophore to produce a fluorescent signal. […] After a 5-minute incubation at room temperature, plates were read in a laser sourced Envision (Perkin-Elmer), measuring fluorescence at 615 nm following excitation w/570 nm light. […]
pIC50: −log10 of the molar value.
ASSAY METRIC: pIC50

Could you tell me which pIC50 is on file for Cc1nn(C)c(C)c1-c1cncc(N2CCC(O)(c3ccc(F)c(F)c3)CC2)n1 [Example 62] ?
4.00 to 5.00

State the recorded pIC50 for this entry: Cc1nn(C)cc1-c1cc(N2CCC(O)(c3ccc(F)c(F)c3)CC2)ncn1 [Example 58]
4.00 to 5.00

What value of pIC50 has been recorded for this entry: Cc1nn(C)cc1-c1cc(N2CCC(O)(c3ccc(F)c(F)c3)CC2)nc(-c2ccccc2)n1 [Example 59]
< 4.00

I have this compound here, COc1ccc(-c2cncc(N3CCC(O)(c4ccc(F)cc4)CC3)n2)cc1 [Example 29] , and I need its recorded pIC50.
< 4.00

# lookup: pIC50 of Cc1nn(C)cc1-c1cncc(N2CCC(O)(c3ccc(F)c(F)c3)CC2)n1 [Example 9]
4.00 to 5.00

# get_value(readout='pIC50', item= OC1(c2ccc(F)cc2)CCN(c2cncc(N3CCCC3)n2)CC1 [Example 78] )
< 4.00

Requested read-out: pIC50. Entry: Cc1nn(C)cc1-c1cc(C(C)(C)O)cc(N2CCC(O)(c3ccc(F)c(F)c3)CC2)n1 [Example 45]
4.00 to 5.00

Would you mind telling me what pIC50 value was observed for O=C(NCCc1ccccc1)c1cncc(N2CCC(O)(c3ccc(F)cc3)CC2)n1 [Example 64] ?
< 4.00

Which pIC50 value belongs to Cc1nn(C)cc1-c1cnnc(N2CCC(O)(c3ccc(F)c(F)c3)CC2)c1 [Example 88] ?
< 4.00

# input compound: O=C(NCc1ccncc1)c1cncc(N2CCC(O)(c3ccc(F)cc3)CC2)n1 [Example 65] ; wanted: its pIC50
< 4.00

# input compound: OC1(c2ccc(F)cc2)CCN(c2ccccn2)CC1 [Example 86] ; wanted: its pIC50
< 4.00

Recorded pIC50 for Cc1nn(C)cc1-c1csc(N2CCC(O)(c3ccc(F)c(F)c3)CC2)n1 [Example 97] , please?
< 4.00

# get_value(readout='pIC50', item= OC1(c2ccc(F)cc2)CCN(c2cncc(-c3cnn(Cc4ccccc4)c3)n2)CC1 [Example 14] )
< 4.00

Any idea what its pIC50 is? The compound is Cc1nn(C)cc1-c1cc(C(N)=O)cc(N2CCC(O)(c3cc(F)c(F)c(F)c3)CC2)n1 [Example 93]
< 4.00

Item Cc1noc(C)c1-c1cncc(N2CCC(O)(c3ccc(F)cc3)CC2)n1 [Example 19] has what recorded pIC50?
< 4.00

What does the record list as pIC50 for Cn1cc(-c2cncc(N3CCC(O)(c4ccc(F)c(F)c4)CC3)n2)c(C2CC2)n1 [Example 11] ?
4.00 to 5.00

Which pIC50 reading was recorded for the compound Cc1nn(C)cc1-c1nsc(N2CCC(O)(c3ccc(F)c(F)c3)CC2)n1 [Example 96] ?
< 4.00

Which pIC50 value belongs to Cn1cc(-c2cncc(N3CCC(O)(CCc4ccccc4)CC3)n2)cn1 [Example 6] ?
< 4.00

* * *

# SUBJECT OF TEST: full length human TREX1 (Homo sapiens, UniProt Q9NSU2)
# Construct: N-terminally His-Tev tagged full length human TREX1; His-Tev (His tag with TEV site) (N)
# Sequence (Q9NSU2 1-314): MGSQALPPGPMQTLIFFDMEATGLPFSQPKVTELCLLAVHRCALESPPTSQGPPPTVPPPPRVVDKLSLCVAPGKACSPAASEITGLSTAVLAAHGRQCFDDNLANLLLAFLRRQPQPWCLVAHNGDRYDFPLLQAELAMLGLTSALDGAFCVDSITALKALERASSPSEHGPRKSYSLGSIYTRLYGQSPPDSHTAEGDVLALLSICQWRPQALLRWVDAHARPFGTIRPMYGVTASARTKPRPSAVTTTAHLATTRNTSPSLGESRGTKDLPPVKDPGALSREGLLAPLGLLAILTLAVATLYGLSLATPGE
# TEST PROTOCOL: TREX1 Biochemical Assay (fluorescence assay, degradation of dsDNA substrate)
# MEASUREMENT CONDITIONS: 150 pM TREX1, 60 nM dsDNA substrate, 25 minutes at room temperature
pIC50: −log10 of the molar value.
ASSAY METRIC: pIC50

Name the recorded pIC50 for Cn1cc(-c2cc(-c3cnn(C)c3)nc(N3CCC(O)(c4cccc(F)c4)CC3)c2)cn1 [Example 60] .
5.00 to 6.00

State the recorded pIC50 for this entry: Cc1nc(-c2cn(C)nc2C)cc(N2CCC(O)(c3ccc(F)c(F)c3)CC2)n1 [Example 57]
> 7.00

What pIC50 value was documented for this compound, Cc1nn(C)cc1-c1cc(CO)cc(N2CCC(O)(c3ccc(F)c(F)c3)CC2)n1 [Example 44] ?
6.00 to 7.00

Reported pIC50 for Cn1cc(-c2cncc(N3CCC(O)(c4ccc(F)c(F)c4)CC3)n2)c(C(F)(F)F)n1 [Example 10] : what is it?
> 7.00

* * *

# SUBJECT OF TEST: full length human TREX1 (Homo sapiens, UniProt Q9NSU2)
# Construct: N-terminally His-Tev tagged full length human TREX1; His-Tev (His tag with TEV site) (N)
# Sequence (Q9NSU2 1-314): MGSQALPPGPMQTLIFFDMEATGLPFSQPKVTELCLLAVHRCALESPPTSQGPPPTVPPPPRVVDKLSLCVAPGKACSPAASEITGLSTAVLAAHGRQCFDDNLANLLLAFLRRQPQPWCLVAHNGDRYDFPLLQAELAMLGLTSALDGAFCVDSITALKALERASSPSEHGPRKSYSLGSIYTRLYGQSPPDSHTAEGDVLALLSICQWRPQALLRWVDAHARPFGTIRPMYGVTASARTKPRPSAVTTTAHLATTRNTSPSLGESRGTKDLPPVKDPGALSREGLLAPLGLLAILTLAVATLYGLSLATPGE
# TEST PROTOCOL: TREX1 Biochemical Assay (fluorescence assay, degradation of dsDNA substrate)
# MEASUREMENT CONDITIONS: 150 pM TREX1, 60 nM dsDNA substrate, 25 minutes at room temperature
pIC50: −log10 of the molar value.
ASSAY METRIC: pIC50

Bench note: what pIC50 did `Cn1cc(-c2cc(N3CCC(O)(c4cccc(F)c4)CC3)cc(-c3cnn(C)c3)n2)cn1` show?
5.00 to 6.00

For the compound shown here, `Cc1nn(C)cc1-c1ccnc(N2CCC(O)(c3ccc(F)c(F)c3)CC2)n1` , give the reported pIC50.
6.00 to 7.00

Sample `OC1(c2ccc(F)cc2)CCN(c2cccc(-n3cccn3)n2)CC1` — what was its pIC50?
5.00 to 6.00

Look at this compound and give its reported pIC50. `CS(=O)(=O)c1ccc(-c2cncc(N3CCC(O)(c4ccc(F)cc4)CC3)n2)cc1`
5.00 to 6.00

So what does the record say about pIC50 for `COc1ccc(C2(O)CCN(c3cncc(-n4cccn4)n3)CC2)cc1` ?
< 5.00

Could you tell me which pIC50 is on file for `Cn1cc(-c2ccnc(N3CCC(O)(c4ccc(F)cc4)CC3)n2)cn1` ?
5.00 to 6.00

Query: pIC50; subject: `COCCNC(=O)c1cncc(N2CCC(O)(c3ccc(F)cc3)CC2)n1`
< 5.00

Suppose we examine the compound `OC1(c2ccc(F)cc2)CCN(c2nccc(-n3cccn3)n2)CC1` ; what pIC50 value has been reported?
5.00 to 6.00

Need pIC50 of `OC1(c2ccc(F)cc2)CCN(c2cncc(N3CCCC3)n2)CC1` , thanks.
< 5.00

Param item = `Cc1ncc(N2CCC(O)(c3ccc(F)c(F)c3)CC2)nc1-c1cnn(C)c1` ; retrieve measured pIC50.
6.00 to 7.00

Fill in: pIC50 of `Cc1nn(C)cc1-c1cc(C(N)=O)cc(N2CCC(O)(c3cc(F)c(F)c(F)c3)CC2)n1` is ___
6.00 to 7.00

# input compound: `OC1(c2ccc(Cl)cc2)CCN(c2cncc(-n3cccn3)n2)CC1` ; wanted: its pIC50
5.00 to 6.00

Given the entry Cc1nn(C)cc1-c1cncc(N2CCC(O)(c3ccc(F)cc3)C(F)(F)C2)n1 (stereo not drawn) , report its measured pIC50.
6.00 to 7.00

What measured pIC50 goes with `OC1(c2ccc(F)cc2)CCN(c2cncc(-c3ccc(F)cc3)n2)CC1` ?
< 5.00

Bench note: what pIC50 did `CN1CCN(C(=O)c2cncc(N3CCC(O)(c4ccc(F)cc4)CC3)n2)CC1` show?
< 5.00

Which value of pIC50 has been reported for `Cn1cc(-c2nccc(N3CCC(O)(c4ccc(F)cc4)CC3)n2)cn1` in the records?
6.00 to 7.00

Form field: reported pIC50 of `Cn1cc(-c2cncc(N3CCC(O)(c4ccc(F)c(F)c4)CC3)n2)cn1`
6.00 to 7.00

Look up pIC50: `Cc1nn(C(C)C)cc1-c1cncc(N2CCC(O)(c3ccc(F)c(F)c3)CC2)n1`
> 7.00
